Entries and their measured CM: Cell morphology score follow.
- Tested on: HL60 cells
- Measurement Description: AsedaSciences SYSTEMETRIC Cell Health Screen (flow cytometry toxicity profiling)
- Applied Conditions: HL60, 4 h, 5 nM–100 µM, probability 0–1, n = 2
Assay Endpoint: CM: Cell morphology score

[
  {
    "Compound": "Clc1cccc(Cl)c1N=C1NCCN1 [Clonidine, reference compound]",
    "Measurement Target": "HL60 cells",
    "Assay Endpoint": "CM: Cell morphology score",
    "Recorded Value": 0.00
  },
  {
    "Compound": "CN(CCOc1ccc(CC2SC(=O)NC2=O)cc1)c1ccccn1 (stereo not drawn) [Rosiglitazone, reference compound]",
    "Measurement Target": "HL60 cells",
    "Assay Endpoint": "CM: Cell morphology score",
    "Recorded Value": 0.49
  },
  {
    "Compound": "C#Cc1cc(Nc2ncnc3ccc(I)cc23)ccc1Cl",
    "Measurement Target": "HL60 cells",
    "Assay Endpoint": "CM: Cell morphology score",
    "Recorded Value": 0.26
  },
  {
    "Compound": "O=C1CC2(CCCC2)CC(=O)N1CCCCN1CCN(c2ncccn2)CC1 [Buspirone, reference compound]",
    "Measurement Target": "HL60 cells",
    "Assay Endpoint": "CM: Cell morphology score",
    "Recorded Value": 0.060
  },
  {
    "Compound": "CC/C(=C(\\c1ccccc1)c1ccc(OCCN(C)C)cc1)c1ccccc1 [Tamoxifen, reference compound]",
    "Measurement Target": "HL60 cells",
    "Assay Endpoint": "CM: Cell morphology score",
    "Recorded Value": 1.00
  },
  {
    "Compound": "C#Cc1cc(Nc2ncnc3cc(OC)c(OC)cc23)ccc1Cl",
    "Measurement Target": "HL60 cells",
    "Assay Endpoint": "CM: Cell morphology score",
    "Recorded Value": 1.00
  },
  {
    "Compound": "O=C(O)CCc1nc(-c2ccccc2)c(-c2ccccc2)o1 [Oxaprozin, reference compound]",
    "Measurement Target": "HL60 cells",
    "Assay Endpoint": "CM: Cell morphology score",
    "Recorded Value": 0.00
  },
  {
    "Compound": "C#Cc1cccc(Nc2c(C#N)cnc3ccc(I)cc23)c1",
    "Measurement Target": "HL60 cells",
    "Assay Endpoint": "CM: Cell morphology score",
    "Recorded Value": 0.88
  },
  {
    "Compound": "CN(C)CCOC(c1ccccc1)c1ccccc1 [Diphenhydramine, reference compound]",
    "Measurement Target": "HL60 cells",
    "Assay Endpoint": "CM: Cell morphology score",
    "Recorded Value": 0.010
  },
  {
    "Compound": "C#Cc1cccc(Nc2ncnc3cc4c(cc23)OCCO4)c1",
    "Measurement Target": "HL60 cells",
    "Assay Endpoint": "CM: Cell morphology score",
    "Recorded Value": 0.053
  },
  {
    "Compound": "C#Cc1cccc(Nc2ncnc3ccc(S(C)(=O)=O)cc23)c1",
    "Measurement Target": "HL60 cells",
    "Assay Endpoint": "CM: Cell morphology score",
    "Recorded Value": 0.0013
  },
  {
    "Compound": "C#Cc1cccc(Nc2ncnc3ccc(Br)cc23)c1",
    "Measurement Target": "HL60 cells",
    "Assay Endpoint": "CM: Cell morphology score",
    "Recorded Value": 0.0037
  },
  {
    "Compound": "C#Cc1cccc(Nc2ncnc3cc(C(F)(F)F)ccc23)c1",
    "Measurement Target": "HL60 cells",
    "Assay Endpoint": "CM: Cell morphology score",
    "Recorded Value": 1.00
  },
  {
    "Compound": "C#Cc1cccc(Nc2ccnc3cc(I)ccc23)c1F",
    "Measurement Target": "HL60 cells",
    "Assay Endpoint": "CM: Cell morphology score",
    "Recorded Value": 0.98
  },
  {
    "Compound": "NC(=O)c1ncn([C@@H]2O[C@H](CO)[C@@H](O)[C@H]2O)n1 [Ribavirin, reference compound]",
    "Measurement Target": "HL60 cells",
    "Assay Endpoint": "CM: Cell morphology score",
    "Recorded Value": 0.010
  },
  {
    "Compound": "Cc1ccc(-c2cc(C(F)(F)F)nn2-c2ccc(S(N)(=O)=O)cc2)cc1 [Celecoxib, reference compound]",
    "Measurement Target": "HL60 cells",
    "Assay Endpoint": "CM: Cell morphology score",
    "Recorded Value": 0.56
  },
  {
    "Compound": "CC(C)(C(=O)O)c1ccc(C(O)CCCN2CCC(C(O)(c3ccccc3)c3ccccc3)CC2)cc1 (stereo not drawn) [Fexofenadine, reference compound]",
    "Measurement Target": "HL60 cells",
    "Assay Endpoint": "CM: Cell morphology score",
    "Recorded Value": 0.00
  },
  {
    "Compound": "COc1cc2ncnc(Nc3ccc(F)c(Cl)c3)c2cc1OCCCN1CCOCC1 [Gefitinib, reference compound]",
    "Measurement Target": "HL60 cells",
    "Assay Endpoint": "CM: Cell morphology score",
    "Recorded Value": 1.00
  }
]

----------
- System: HL60 cells
- Measurement Description: AsedaSciences SYSTEMETRIC Cell Health Screen (flow cytometry toxicity profiling)
- Applied Conditions: HL60, 4 h, 5 nM–100 µM, probability 0–1, n = 2
Assay Endpoint: CC: Cell Cycle score

[
  {
    "Compound": "CCC(C)(C)C(=O)O[C@H]1C[C@@H](C)C=C2C=C[C@H](C)[C@H](CC[C@@H]3C[C@@H](O)CC(=O)O3)[C@H]21 [Simvastatin, reference compound]",
    "Recorded Value": 0.12
  },
  {
    "Compound": "O=C(O)c1cc(/N=N/c2ccc(S(=O)(=O)Nc3ccccn3)cc2)ccc1O [Sulfasalazine, reference compound]",
    "Recorded Value": 0.10
  },
  {
    "Compound": "C#Cc1cc(Nc2ncnc3cc(OC)c(OC)cc23)ccc1Cl [Compound 45]",
    "Recorded Value": 0.10
  }
]

----------
Entries and their measured ROS: Reactive superoxide species score follow.
- System: HL60 cells
- Measurement Description: AsedaSciences SYSTEMETRIC Cell Health Screen (flow cytometry toxicity profiling)
- Applied Conditions: HL60, 4 h, 5 nM–100 µM, probability 0–1, n = 2
Assay Endpoint: ROS: Reactive superoxide species score

[
  {
    "Compound": "C#Cc1cccc(Nc2ncnc3cc(OC)ccc23)c1",
    "Measurement Target": "HL60 cells",
    "Assay Endpoint": "ROS: Reactive superoxide species score",
    "Recorded Value": 0.63
  },
  {
    "Compound": "C#Cc1cccc(Nc2ncnc3cc4c(cc23)OCCO4)c1",
    "Measurement Target": "HL60 cells",
    "Assay Endpoint": "ROS: Reactive superoxide species score",
    "Recorded Value": 0.85
  },
  {
    "Compound": "C#Cc1cc(Nc2ncnc3ccc(I)cc23)ccc1F",
    "Measurement Target": "HL60 cells",
    "Assay Endpoint": "ROS: Reactive superoxide species score",
    "Recorded Value": 0.35
  },
  {
    "Compound": "Cc1ccnc2c1NC(=O)c1cccnc1N2C1CC1 [Nevirapine, reference compound]",
    "Measurement Target": "HL60 cells",
    "Assay Endpoint": "ROS: Reactive superoxide species score",
    "Recorded Value": 0.28
  },
  {
    "Compound": "O=C(O)CCc1nc(-c2ccccc2)c(-c2ccccc2)o1 [Oxaprozin, reference compound]",
    "Measurement Target": "HL60 cells",
    "Assay Endpoint": "ROS: Reactive superoxide species score",
    "Recorded Value": 0.16
  },
  {
    "Compound": "C#Cc1cccc(Nc2ncnc3cc4c(cc23)OCO4)c1",
    "Measurement Target": "HL60 cells",
    "Assay Endpoint": "ROS: Reactive superoxide species score",
    "Recorded Value": 0.027
  }
]

----------
- Tested on: HL60 cells
- Measurement Description: AsedaSciences SYSTEMETRIC Cell Health Screen (flow cytometry toxicity profiling)
- Applied Conditions: SYSTEMETRIC Cell Health Screen; assay n=2
Assay Endpoint: Cell Health Toxcity Profile ROS (Reactive superoxide species)

[
  {
    "Compound": "C#Cc1cccc(Nc2c(C#N)cnc3ccc(F)cc23)c1 [Compound 25]",
    "Recorded Value": 0.93
  },
  {
    "Compound": "C#Cc1cccc(Nc2c(C#N)cnc3cc(OC)c(OC)cc23)c1 [Compound 22]",
    "Recorded Value": 0.81
  },
  {
    "Compound": "C#Cc1cccc(Nc2c(C#N)cnc3ccc(Cl)cc23)c1 [Compound 26]",
    "Recorded Value": 1.00
  },
  {
    "Compound": "C#Cc1cccc(Nc2c(C#N)cnc3cc(I)ccc23)c1 [Compound 32]",
    "Recorded Value": 0.99
  },
  {
    "Compound": "C#Cc1cccc(Nc2c(C#N)cnc3ccc(Br)cc23)c1 [Compound 27]",
    "Recorded Value": 1.00
  },
  {
    "Compound": "C#Cc1cccc(Nc2c(C#N)cnc3ccc(I)cc23)c1 [Compound 28]",
    "Recorded Value": 0.89
  },
  {
    "Compound": "C#Cc1cccc(Nc2c(C#N)cnc3cc(Br)ccc23)c1 [Compound 31]",
    "Recorded Value": 0.87
  }
]

These data points were gathered from paper PMC9329436.
